Assay: yeast display, Sf9 membrane polyspecificity reagent, FACS + sequencing; frameworks hold sequencing errors
Metric name: polyreactivity (PSR sort gate)

Solved cases below.
{"columns": ["Entry sequence", "Result"],
 "data": [
  ["QVHLVESGGGLVQAGGSLRLSCAASGSIFRIYAMGWYRQAPGKERELVAAINAGGGRTYYADSVKGRFTISRDNAKNTVYLQMNSLKPEDNAVYFCAARHTEYRQESLYYWGQGTQVTVSS", "low polyreactivity"],
  ["QVQLVESGGGLVQAGRSLRLSCAASGFTFQSYDMGWYRQAPGKDRELVAAISWSGASTYYADSVKGRFTISRDNAKNTVYLQMNSLKPEDTAVYYCAAGEPTWWGYANDYWGQGTQVTVST", "high polyreactivity"],
  ["QVQLVESGGGLVQAGGSLRLSCAASGGTFWIYAMGSYRQAPGKERELVAGISHGDSTYYADSVKGRFTISRDNAKNTVYLQMNSLKPEDTAVYYCARDYRNPPFAYEYWGQGTQVTVSS", "low polyreactivity"],
  ["QVQLVESGGGLVQAGGSLRLSCAASGSIFKVYAMGWYRQAPGKEREFVAAITSSDSNTNYADSVKGRFTISRDNAKNTDYLQMNSLKPEDTAVYYCNARIYTRRYVPHYGFNYWGQGTQVTVSS", "low polyreactivity"]
]}

Kindly indicate its recorded polyreactivity (PSR sort gate). Item: `QGQLVETGGGLVQAGGSLRLSCAASGSTFSYYAMGWYRQAPGKEREWVAAISRRGGSTYYADSVKGRFTISRDNAKNTVYLQMISLKPEDTAVNYCAADDYYSSRIEYYNWGQGTQVTVSS`
high polyreactivity

* * *

Test: yeast display, Sf9 membrane polyspecificity reagent, FACS + sequencing; frameworks hold sequencing errors
Metric name: polyreactivity (PSR sort gate)

Solved cases below.
{"columns": ["Entry sequence", "Metric name", "Result"],
 "data": [
  ["QVQLVESGGGLVQAGGSLRLSCAASGFIFGIYAMGWYRQAPGKEREFVAAMTGSAGSTYYADSVKGRFTISRDNAKNTVYLQMNSLKPEDTAVYYCAAVLRTHRYGGYNYWGQGTQVTVSS", "polyreactivity (PSR sort gate)", "low polyreactivity"],
  ["QVQLVESGGGLVQAGGSLRLSCAASGFIFKTYAMGWYRQAPGKERELVATITRRGGRTYYADSVKGRFTISRDNAKNTVYLQMNSLKPEDTAVYDCAADYALSSLPFDYWGQGTQVTVSS", "polyreactivity (PSR sort gate)", "high polyreactivity"],
  ["QVQLVESGGGLVQAGGSLRLSCAASGIIFQTYAMGWYRQAPGKERELVAAISRTGGSTYYADSVKGRFTISRDNAKITVYVQMHSLKPEDTAVYSCAAPRFAAPLRIGYVWGQVTQVTVSS", "polyreactivity (PSR sort gate)", "high polyreactivity"],
  ["QVQLVESGGGLVQAGGSLRLTCAASGSTFWAYAMGWYRQAPGKERELVAAITTGGGRTFYADSVKGRFTISRDNAKNTVYLQMNSLIPEDTAVYYCAAVSQSYRMYYWGQGTQVTVSS", "polyreactivity (PSR sort gate)", "low polyreactivity"],
  ["QVQLVESGGGLVQAGGSLRLSCAASGFIFDTYAMGWYRQAPGKERELVAAISWTGTDTYYADSVKGRFTISRDNAKNTVYLQMNSLKPEDTAVYYCAARSRYKYSPSGDYWGQGTQVTVSS", "polyreactivity (PSR sort gate)", "high polyreactivity"],
  ["QVQLVESGGGLVQAGGSLRLSCAASGNIFLFYVMAWYRQAPGKERELVAAITLSGTNTYYADSVKGRFTISRDNAKNTVYLQMNSLKPDDTAVYYCAAEPKTYDWYPWGQVIENYWGQGTQVTVSS", "polyreactivity (PSR sort gate)", "low polyreactivity"]
]}

Kindly indicate its recorded polyreactivity (PSR sort gate). Item: `QVQLVESGGGLVQAGGSLRLSCAASGFTFRTYAKGWYRQAPAKERELVADISGSGGSTYYADSVKGRFTISRDNAKNTVYLQMNSLKPEDTAVYYCAADYASWSNWGYEYWGQGTQVTVSS`
high polyreactivity
